Origin of values: PubChem BioAssay

# Test system: wheat germ agglutinin (Triticum aestivum), Alexa647-labelled
# experiment-summary: wheat germ agglutinin binders on compound microarrays, profiling panel, artefact control for SMM control-protein annotation, biochemical, small-molecule microarray, 635/667 nm fluorescence (AID 1140);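 also: score merges 667 nm feature emission with signal to noise over triplicate slides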
# test-context: WGA-A647 binding, 635 nm fluorescence, higher = more signal
readout: composite z-score

[
  {
    "molecule": "C=CCC(OC(C)=O)[C@@H]1[C@@H](N(Cc2ccc(-c3cccc(C(F)(F)F)c3)o2)C(=O)c2cccc3ccccc23)c2cc(OCCCO)ccc2N1C(=O)Cc1ccc(OC)cc1 (some centres undefined)",
    "target-system": "wheat germ agglutinin (Triticum aestivum), Alexa647-labelled",
    "readout-number": 0.0854
  },
  {
    "molecule": "Cc1cccc([C@H]2C[C@H]3C(Br)=C[C@@H]2C(=O)[C@]32CO2)c1",
    "target-system": "wheat germ agglutinin (Triticum aestivum), Alexa647-labelled",
    "readout-number": -0.278
  },
  {
    "molecule": "COC(=O)C(CC#Cc1ccc2c(c1)[C@]1(C(=O)N2)[C@H](C(=O)Nc2nc3ccccc3s2)[C@H]2C(=O)O[C@H](c3ccccc3)[C@H](c3ccccc3)N2[C@@H]1c1ccc(OCCO)cc1)C(=O)OC",
    "target-system": "wheat germ agglutinin (Triticum aestivum), Alexa647-labelled",
    "readout-number": 1.07
  },
  {
    "molecule": "COC(=O)[C@@]1(Cc2ccc(F)cc2)[C@H]2c3cc(C(=O)N4CCCC4)n(C)c3C[C@H]2CN1C(=O)c1ccccc1",
    "target-system": "wheat germ agglutinin (Triticum aestivum), Alexa647-labelled",
    "readout-number": 0.0993
  },
  {
    "molecule": "CO[C@H]1O[C@H](CO)[C@@H](OC(=O)c2ccc(Br)cc2)[C@@H]2OC(=O)[C@H](Cc3ccccc3)C/C=C/C[C@@H](Cc3ccccc3)C(=O)O[C@@H]12",
    "target-system": "wheat germ agglutinin (Triticum aestivum), Alexa647-labelled",
    "readout-number": -0.0716
  },
  {
    "molecule": "CN1C(=O)C2C=CC(C(O)c3cc(C(F)(F)F)cc(C(F)(F)F)c3)N(Nc3ccccc3)C2C1=O (centres undefined)",
    "target-system": "wheat germ agglutinin (Triticum aestivum), Alexa647-labelled",
    "readout-number": 0.225
  },
  {
    "molecule": "CC=CC(O)C1C=CC2C(=O)NC(=O)C2N1Nc1ccccn1 (centres undefined)",
    "target-system": "wheat germ agglutinin (Triticum aestivum), Alexa647-labelled",
    "readout-number": 0.0489
  },
  {
    "molecule": "NC(=O)N1C(=O)C2C(C1=O)C1C=C(CCCO)C2C(C2CC2)N1Cc1cccc(OC(F)(F)F)c1 (centres undefined)",
    "target-system": "wheat germ agglutinin (Triticum aestivum), Alexa647-labelled",
    "readout-number": 0.94
  },
  {
    "molecule": "C=CCNC(=O)[C@H]1[C@@H]2C(=O)O[C@@H](c3ccccc3)[C@@H](c3ccccc3)N2[C@@H](c2ccc(O)cc2)[C@]12C(=O)N(C(=O)OCCOC)c1ccc(C#CCC(C(=O)OC)C(=O)OC)cc12",
    "target-system": "wheat germ agglutinin (Triticum aestivum), Alexa647-labelled",
    "readout-number": 0.856
  },
  {
    "molecule": "CCN(CC)c1ccc(N2CC=CC34O[C@@H]5C=CCCOC(=O)C5[C@H]3C(=O)N(CCO)[C@@H]4C2=O)cc1 (some centres undefined)",
    "target-system": "wheat germ agglutinin (Triticum aestivum), Alexa647-labelled",
    "readout-number": -0.553
  },
  {
    "molecule": "C=C(/C(=C/C[C@@H](OC(C)=O)c1ccc(OCCO)cc1)c1cc(C(=O)OC)ccc1OC)C(C)C",
    "target-system": "wheat germ agglutinin (Triticum aestivum), Alexa647-labelled",
    "readout-number": 0.85
  },
  {
    "molecule": "COCCOC(=O)N1C(=O)[C@@]2(c3ccccc31)[C@H](c1ccccc1OCCO)N1[C@H](c3ccccc3)[C@H](c3ccccc3)OC(=O)[C@H]1[C@@H]2C(=O)N1CCCCCCC1",
    "target-system": "wheat germ agglutinin (Triticum aestivum), Alexa647-labelled",
    "readout-number": 1.63
  },
  {
    "molecule": "CO[C@H]1O[C@H](CO)[C@@H](OC(=O)Nc2cccc(F)c2)[C@H](OC(=O)Nc2ccccc2-c2ccccc2)[C@H]1OC(=O)Nc1ccccc1-c1ccccc1",
    "target-system": "wheat germ agglutinin (Triticum aestivum), Alexa647-labelled",
    "readout-number": 0.474
  },
  {
    "molecule": "C=C(/C(=C/C[C@H](OC(=O)c1ccncc1)c1ccccc1OCCO)c1cnc2ccccc2c1)C(C)C",
    "target-system": "wheat germ agglutinin (Triticum aestivum), Alexa647-labelled",
    "readout-number": 0.846
  },
  {
    "molecule": "[N-]=[N+]=NCc1ccccc1C[C@]1(C(=O)N2CCOCC2)COC(c2ccc(OCCCO)cc2)=N1",
    "target-system": "wheat germ agglutinin (Triticum aestivum), Alexa647-labelled",
    "readout-number": 1.01
  },
  {
    "molecule": "[N-]=[N+]=Nc1ccccc1C[C@]1(C(=O)O)N=C(c2ccc(OCCCO)cc2)O[C@H]1c1ccccc1",
    "target-system": "wheat germ agglutinin (Triticum aestivum), Alexa647-labelled",
    "readout-number": 0.801
  },
  {
    "molecule": "CC(C)(C)OC(=O)CC[C@]1(C(=O)N2CCCCC2)COC(c2ccc(OCCCO)cc2)=N1",
    "target-system": "wheat germ agglutinin (Triticum aestivum), Alexa647-labelled",
    "readout-number": 1.12
  },
  {
    "molecule": "CCCC=C(CCC)[C@@H](NS(=O)(=O)c1cccc2cccnc12)c1ccc(-c2ccccc2)cc1",
    "target-system": "wheat germ agglutinin (Triticum aestivum), Alexa647-labelled",
    "readout-number": 0.745
  },
  {
    "molecule": "COC(=O)[C@@]1(Cc2ccc(OC)cc2)[C@H]2c3cc(C(=O)N4CCCC4)n(Cc4cc(C)n(C)n4)c3C[C@H]2CN1C(=O)c1ccccc1",
    "target-system": "wheat germ agglutinin (Triticum aestivum), Alexa647-labelled",
    "readout-number": 1.33
  },
  {
    "molecule": "COc1ccc([Si](C)(C)[C@@H]2[C@@H](CC(=O)N3Cc4ccccc4C[C@H]3CO)O[C@]3(C(=O)N(c4ccccc4)c4ccccc43)[C@H]2C)cc1",
    "target-system": "wheat germ agglutinin (Triticum aestivum), Alexa647-labelled",
    "readout-number": 1.53
  },
  {
    "molecule": "CCCCC(=O)N(CCN1CCOCC1)[C@@H]1CC(C(=O)NCCO)=C[C@H](Oc2c(I)cc(CO)cc2OC)[C@H]1O",
    "target-system": "wheat germ agglutinin (Triticum aestivum), Alexa647-labelled",
    "readout-number": 0.0626
  },
  {
    "molecule": "CCOC(=O)C1=C[C@@H](c2ccccc2)N(S(=O)(=O)c2ccc(C)cc2)[C@H]1c1ccccc1",
    "target-system": "wheat germ agglutinin (Triticum aestivum), Alexa647-labelled",
    "readout-number": 0.197
  },
  {
    "molecule": "CCOC(=O)C=Cc1cc(F)ccc1O",
    "target-system": "wheat germ agglutinin (Triticum aestivum), Alexa647-labelled",
    "readout-number": 0.0203
  },
  {
    "molecule": "CC(C)c1ccc(NN2C(C(O)Cc3ccccc3)C=CC3C(=O)N(c4ccccc4)C(=O)C32)cc1 (centres undefined)",
    "target-system": "wheat germ agglutinin (Triticum aestivum), Alexa647-labelled",
    "readout-number": 0.797
  },
  {
    "molecule": "COc1cc(NN2C(C(O)c3ccc(I)cc3)C=CC3C(=O)N(c4ccccc4)C(=O)C32)cc(OC)c1OC (centres undefined)",
    "target-system": "wheat germ agglutinin (Triticum aestivum), Alexa647-labelled",
    "readout-number": 1.39
  },
  {
    "molecule": "CN(C)C(=O)[C@]1(CCS(=O)(=O)c2ccccc2)N=C(c2ccc(OCCCO)cc2)O[C@@H]1c1ccccc1",
    "target-system": "wheat germ agglutinin (Triticum aestivum), Alexa647-labelled",
    "readout-number": -0.0414
  },
  {
    "molecule": "C=CCC(OC(C)=O)[C@@H]1[C@@H](N(Cc2cccc3ccccc23)C(=O)c2ccc(-c3ccccc3)cc2)c2cc(OCCCO)ccc2N1C(=O)c1ccc(-c2ccccc2)cc1 (some centres undefined)",
    "target-system": "wheat germ agglutinin (Triticum aestivum), Alexa647-labelled",
    "readout-number": 0.204
  },
  {
    "molecule": "CO[C@H]1O[C@H](CO)[C@@H](OC(=O)CCc2ccccc2)[C@H](OC(=O)c2cc3ccccc3[nH]2)[C@H]1OC(=O)c1cc2ccccc2[nH]1",
    "target-system": "wheat germ agglutinin (Triticum aestivum), Alexa647-labelled",
    "readout-number": 0.726
  },
  {
    "molecule": "CS(=O)(=O)CCOC(=O)C1=CC(CCCO)=CC(C2CC2)N(Cc2cccc(OC(F)(F)F)c2)C=C1C(=O)OCCS(C)(=O)=O (centres undefined)",
    "target-system": "wheat germ agglutinin (Triticum aestivum), Alexa647-labelled",
    "readout-number": 0.927
  }
]
